Assignment: determine reported TXK binding POC for the given compounds.
Target: UniProtKB P42681
Sequence (P42681 1-527): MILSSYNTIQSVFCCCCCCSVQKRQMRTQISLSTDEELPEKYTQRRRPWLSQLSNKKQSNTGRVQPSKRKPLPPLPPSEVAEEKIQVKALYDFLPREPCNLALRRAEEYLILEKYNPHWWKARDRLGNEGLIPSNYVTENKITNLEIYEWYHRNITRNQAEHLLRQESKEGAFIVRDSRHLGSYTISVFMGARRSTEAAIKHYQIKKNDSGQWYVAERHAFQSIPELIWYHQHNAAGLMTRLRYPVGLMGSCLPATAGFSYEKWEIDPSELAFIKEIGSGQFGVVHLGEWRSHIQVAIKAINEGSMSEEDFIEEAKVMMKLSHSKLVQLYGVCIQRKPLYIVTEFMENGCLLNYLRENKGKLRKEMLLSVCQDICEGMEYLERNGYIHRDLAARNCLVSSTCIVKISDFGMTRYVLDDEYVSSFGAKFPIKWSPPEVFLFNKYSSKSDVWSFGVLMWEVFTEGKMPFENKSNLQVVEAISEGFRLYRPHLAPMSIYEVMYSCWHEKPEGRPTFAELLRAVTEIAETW
Assay: scanMAX binding POC, TXK
Conditions: 1 μM

Which value of TXK binding POC has been reported for C=CC(=O)Nc1cccc(Oc2nc(Nc3ccc(N4CCN(C)CC4)cc3)nc3ccoc23)c1 [Poseltinib] in the records?
4.4% of control

What measured TXK binding POC goes with C=CC(=O)N1CCC[C@@H](n2nc(-c3ccc(Oc4ccccc4)cc3)c3c(N)ncnc32)C1 [Ibrutinib] ?
0.5% of control

Which TXK binding POC value is on record for C=CC(=O)N(C)CCOc1c(N)ncnc1-c1cc(F)cc(NC(=O)c2ccc(C3CC3)cc2F)c1C [Remibrutinib] ?
97% of control

Which TXK binding POC value belongs to C=CC(=O)Nc1cccc(Nc2nc(Nc3ccc(OCCOC)cc3)ncc2F)c1 [Spebrutinib] ?
4.5% of control

Fill blank: measured TXK binding POC of the compound C=CC(=O)N1CCC(c2ccc(C(N)=O)c(-c3ccc(Oc4ccccc4)cc3)n2)CC1 [Orelabrutinib] is ____.
34% of control

Fill in the blank: the reported TXK binding POC of C=CC(=O)N1CCC(CNc2ncnc(N)c2-c2ccc(Oc3ccccc3)cc2)CC1 [Evobrutinib] is ____.
23% of control

TXK binding POC lookup needed for CC#CC(=O)N1CCC[C@H]1c1nc(-c2ccc(C(=O)Nc3ccccn3)cc2)c2c(N)nccn12 [Acalabrutinib] , thanks.
47% of control

Need TXK binding POC of C=CC(=O)N1CCC[C@@H](c2ccc(C(N)=O)c3[nH]ccc23)C1 [Elsubrutinib] , thanks.
25% of control

Looking for the measured TXK binding POC of CC#CC(=O)N[C@H]1CCCN(c2c(F)cc(C(N)=O)c3[nH]c(C)c(C)c23)C1 [Branebrutinib] , can you help?
2% of control

Which value of TXK binding POC has been reported for CC#CC(=O)N1CC[C@@H](n2c(=O)n(-c3ccc(Oc4ccccc4)cc3)c3c(N)ncnc32)C1 [Tirabrutinib] in the records?
14% of control

Requested field: TXK binding POC. Item: C[C@H]1CN(C2COC2)CCN1c1ccc(Nc2cc(-c3ccnc(N4CCn5c(cc6c5CC(C)(C)C6)C4=O)c3CO)cn(C)c2=O)nc1 [Fenebrutinib]
53% of control

Find the recorded TXK binding POC belonging to O=C(c1ccc(Oc2ccccc2)cc1Cl)c1c[nH]c2ncnc(N[C@@H]3CC[C@@H](CO)OC3)c12 [Nemtabrutinib] and report it.
2.7% of control

// TXK binding POC lookup, key: C=CC(=O)N1CCC[C@@H](n2c(=O)n(-c3ccc(Oc4ccccc4)cc3)c3c(N)nccc32)C1 [Tolebrutinib]
1.1% of control

Entry COc1ccc(F)cc1C(=O)NCc1ccc(-c2nn([C@@H](C)C(F)(F)F)c(N)c2C(N)=O)cc1 [Pirtobrutinib] has what TXK binding POC?
11% of control

Returns the measured TXK binding POC for the input compound. Input: C=CC(=O)N1CCC([C@@H]2CCNc3c(C(N)=O)c(-c4ccc(Oc5ccccc5)cc4)nn32)CC1 [Zanubrutinib]
2.2% of control

---

Target: ERBB3 (Homo sapiens, UniProt P21860)
Sequence (P21860 20-1342): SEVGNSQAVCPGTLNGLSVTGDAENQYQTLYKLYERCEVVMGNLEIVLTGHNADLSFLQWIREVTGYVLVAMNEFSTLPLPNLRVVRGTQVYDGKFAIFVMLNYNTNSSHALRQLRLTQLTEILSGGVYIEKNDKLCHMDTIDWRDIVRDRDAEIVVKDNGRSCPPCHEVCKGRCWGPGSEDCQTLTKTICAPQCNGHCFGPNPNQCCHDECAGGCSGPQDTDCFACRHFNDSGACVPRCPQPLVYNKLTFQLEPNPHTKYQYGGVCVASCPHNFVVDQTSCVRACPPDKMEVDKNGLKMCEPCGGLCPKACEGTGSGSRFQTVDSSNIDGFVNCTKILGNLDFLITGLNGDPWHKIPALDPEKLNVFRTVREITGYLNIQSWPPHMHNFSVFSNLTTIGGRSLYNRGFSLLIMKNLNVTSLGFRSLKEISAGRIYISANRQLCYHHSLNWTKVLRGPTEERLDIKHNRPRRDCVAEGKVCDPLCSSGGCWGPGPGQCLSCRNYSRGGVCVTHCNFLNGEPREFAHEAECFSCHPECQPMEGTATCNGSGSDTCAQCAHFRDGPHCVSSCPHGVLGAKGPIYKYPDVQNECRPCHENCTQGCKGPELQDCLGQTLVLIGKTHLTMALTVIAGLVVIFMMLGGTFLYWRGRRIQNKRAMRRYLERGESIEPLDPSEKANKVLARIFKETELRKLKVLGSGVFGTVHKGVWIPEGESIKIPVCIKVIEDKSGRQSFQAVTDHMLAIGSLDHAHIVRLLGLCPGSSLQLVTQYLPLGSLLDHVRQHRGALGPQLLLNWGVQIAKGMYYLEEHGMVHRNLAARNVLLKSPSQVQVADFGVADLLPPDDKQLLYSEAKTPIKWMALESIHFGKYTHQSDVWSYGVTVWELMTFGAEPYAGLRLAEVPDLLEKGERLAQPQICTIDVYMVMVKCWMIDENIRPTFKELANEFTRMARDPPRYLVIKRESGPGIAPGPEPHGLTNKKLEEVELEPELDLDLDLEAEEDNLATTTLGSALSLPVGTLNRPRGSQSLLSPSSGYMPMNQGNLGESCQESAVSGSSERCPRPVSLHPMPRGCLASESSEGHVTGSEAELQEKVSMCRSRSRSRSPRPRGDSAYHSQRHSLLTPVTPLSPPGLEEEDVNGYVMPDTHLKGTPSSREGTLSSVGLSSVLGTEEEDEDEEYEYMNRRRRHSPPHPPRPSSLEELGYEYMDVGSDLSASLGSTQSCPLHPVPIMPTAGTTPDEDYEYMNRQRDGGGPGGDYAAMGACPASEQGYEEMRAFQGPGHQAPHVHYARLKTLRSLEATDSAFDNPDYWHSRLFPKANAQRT
Assay: scanMAX binding POC, ERBB3
Conditions: 1 μM
outcome-measure: ERBB3 binding POC

Entry "C=CC(=O)N1CCC(CNc2ncnc(N)c2-c2ccc(Oc3ccccc3)cc2)CC1" : reported ERBB3 binding POC = ?
97% of control

Given the compound "O=C(c1ccc(Oc2ccccc2)cc1Cl)c1c[nH]c2ncnc(N[C@@H]3CC[C@@H](CO)OC3)c12" , what is its reported ERBB3 binding POC?
0.9% of control

Recorded ERBB3 binding POC of "C[C@H]1CN(C2COC2)CCN1c1ccc(Nc2cc(-c3ccnc(N4CCn5c(cc6c5CC(C)(C)C6)C4=O)c3CO)cn(C)c2=O)nc1" , please.
78% of control

Please give the measured ERBB3 binding POC for this compound: "C=CC(=O)N1CCC(c2ccc(C(N)=O)c(-c3ccc(Oc4ccccc4)cc3)n2)CC1"
88% of control

May I ask what ERBB3 binding POC has been recorded for "C=CC(=O)N1CCC[C@@H](n2nc(-c3ccc(Oc4ccccc4)cc3)c3c(N)ncnc32)C1" ?
0.15% of control

What value of ERBB3 binding POC has been reported for the following compound? "COc1ccc(F)cc1C(=O)NCc1ccc(-c2nn([C@@H](C)C(F)(F)F)c(N)c2C(N)=O)cc1"
97% of control

Any idea what ERBB3 binding POC was measured for "C=CC(=O)Nc1cccc(Nc2nc(Nc3ccc(OCCOC)cc3)ncc2F)c1" ?
83% of control

Which ERBB3 binding POC value is on record for "C=CC(=O)N1CCC[C@@H](n2c(=O)n(-c3ccc(Oc4ccccc4)cc3)c3c(N)nccc32)C1" ?
0.8% of control

Which ERBB3 binding POC is listed for "CC#CC(=O)N1CC[C@@H](n2c(=O)n(-c3ccc(Oc4ccccc4)cc3)c3c(N)ncnc32)C1" ?
12% of control

Give its ERBB3 binding POC value. Item: "CC#CC(=O)N1CCC[C@H]1c1nc(-c2ccc(C(=O)Nc3ccccn3)cc2)c2c(N)nccn12"
64% of control

Please give the measured ERBB3 binding POC for this compound: "CC#CC(=O)N[C@H]1CCCN(c2c(F)cc(C(N)=O)c3[nH]c(C)c(C)c23)C1"
75% of control

Need ERBB3 binding POC of "C=CC(=O)N(C)CCOc1c(N)ncnc1-c1cc(F)cc(NC(=O)c2ccc(C3CC3)cc2F)c1C" , thanks.
100% of control

Need ERBB3 binding POC, item "C=CC(=O)N1CCC[C@@H](c2ccc(C(N)=O)c3[nH]ccc23)C1"
74% of control

May I ask what ERBB3 binding POC has been recorded for "C=CC(=O)N1CCC([C@@H]2CCNc3c(C(N)=O)c(-c4ccc(Oc5ccccc5)cc4)nn32)CC1" ?
23% of control

Tell me the measured ERBB3 binding POC of "C=CC(=O)Nc1cccc(Oc2nc(Nc3ccc(N4CCN(C)CC4)cc3)nc3ccoc23)c1" , please.
97% of control

---

Target: JAK3 (JH1 catalytic domain) (Homo sapiens, UniProt P52333)
Construct: The JAK3 POC is for its JH1 catalytic domain
Sequence (P52333 822-1111 limits assumed): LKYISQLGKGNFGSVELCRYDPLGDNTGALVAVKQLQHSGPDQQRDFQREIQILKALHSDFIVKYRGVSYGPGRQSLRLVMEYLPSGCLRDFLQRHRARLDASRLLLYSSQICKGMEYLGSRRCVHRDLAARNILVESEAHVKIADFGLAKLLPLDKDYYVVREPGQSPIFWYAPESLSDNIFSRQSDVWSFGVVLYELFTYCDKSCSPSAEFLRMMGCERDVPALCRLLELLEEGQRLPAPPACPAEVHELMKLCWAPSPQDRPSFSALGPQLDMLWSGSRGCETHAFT
Assay: scanMAX binding POC, JAK3
Settings: 1 μM
Give JAK3 binding POC for every item shown.

For C[C@H]1CN(C2COC2)CCN1c1ccc(Nc2cc(-c3ccnc(N4CCn5c(cc6c5CC(C)(C)C6)C4=O)c3CO)cn(C)c2=O)nc1 [Fenebrutinib] , what is its reported JAK3 binding POC?
95% of control

Recorded JAK3 binding POC for C=CC(=O)N1CCC([C@@H]2CCNc3c(C(N)=O)c(-c4ccc(Oc5ccccc5)cc4)nn32)CC1 [Zanubrutinib] , please?
20% of control

Could you tell me which JAK3 binding POC is on file for C=CC(=O)N(C)CCOc1c(N)ncnc1-c1cc(F)cc(NC(=O)c2ccc(C3CC3)cc2F)c1C [Remibrutinib] ?
100% of control

Fill in the blank: the reported JAK3 binding POC of C=CC(=O)Nc1cccc(Nc2nc(Nc3ccc(OCCOC)cc3)ncc2F)c1 [Spebrutinib] is ____.
0% of control

Value lookup for JAK3 binding POC; key = CC#CC(=O)N1CCC[C@H]1c1nc(-c2ccc(C(=O)Nc3ccccn3)cc2)c2c(N)nccn12 [Acalabrutinib]
80% of control

Param item = CC#CC(=O)N[C@H]1CCCN(c2c(F)cc(C(N)=O)c3[nH]c(C)c(C)c23)C1 [Branebrutinib] ; retrieve measured JAK3 binding POC.
48% of control

Name the reported JAK3 binding POC value associated with the compound C=CC(=O)N1CCC(CNc2ncnc(N)c2-c2ccc(Oc3ccccc3)cc2)CC1 [Evobrutinib]
100% of control

Find the recorded JAK3 binding POC belonging to C=CC(=O)N1CCC[C@@H](c2ccc(C(N)=O)c3[nH]ccc23)C1 [Elsubrutinib] and report it.
0.15% of control

Item under review: COc1ccc(F)cc1C(=O)NCc1ccc(-c2nn([C@@H](C)C(F)(F)F)c(N)c2C(N)=O)cc1 [Pirtobrutinib] . Reported JAK3 binding POC?
77% of control

What value of JAK3 binding POC has been reported for the following compound? C=CC(=O)N1CCC(c2ccc(C(N)=O)c(-c3ccc(Oc4ccccc4)cc3)n2)CC1 [Orelabrutinib]
89% of control

JAK3 binding POC lookup needed for O=C(c1ccc(Oc2ccccc2)cc1Cl)c1c[nH]c2ncnc(N[C@@H]3CC[C@@H](CO)OC3)c12 [Nemtabrutinib] , thanks.
86% of control

Name the recorded JAK3 binding POC for C=CC(=O)Nc1cccc(Oc2nc(Nc3ccc(N4CCN(C)CC4)cc3)nc3ccoc23)c1 [Poseltinib] .
0.45% of control

I'd like to know its JAK3 binding POC. The compound in question is C=CC(=O)N1CCC[C@@H](n2c(=O)n(-c3ccc(Oc4ccccc4)cc3)c3c(N)nccc32)C1 [Tolebrutinib]
36% of control
